Target System: Interleukin-6 receptor subunit beta (Homo sapiens) (UniProt P40189)
Sequence (whole entry): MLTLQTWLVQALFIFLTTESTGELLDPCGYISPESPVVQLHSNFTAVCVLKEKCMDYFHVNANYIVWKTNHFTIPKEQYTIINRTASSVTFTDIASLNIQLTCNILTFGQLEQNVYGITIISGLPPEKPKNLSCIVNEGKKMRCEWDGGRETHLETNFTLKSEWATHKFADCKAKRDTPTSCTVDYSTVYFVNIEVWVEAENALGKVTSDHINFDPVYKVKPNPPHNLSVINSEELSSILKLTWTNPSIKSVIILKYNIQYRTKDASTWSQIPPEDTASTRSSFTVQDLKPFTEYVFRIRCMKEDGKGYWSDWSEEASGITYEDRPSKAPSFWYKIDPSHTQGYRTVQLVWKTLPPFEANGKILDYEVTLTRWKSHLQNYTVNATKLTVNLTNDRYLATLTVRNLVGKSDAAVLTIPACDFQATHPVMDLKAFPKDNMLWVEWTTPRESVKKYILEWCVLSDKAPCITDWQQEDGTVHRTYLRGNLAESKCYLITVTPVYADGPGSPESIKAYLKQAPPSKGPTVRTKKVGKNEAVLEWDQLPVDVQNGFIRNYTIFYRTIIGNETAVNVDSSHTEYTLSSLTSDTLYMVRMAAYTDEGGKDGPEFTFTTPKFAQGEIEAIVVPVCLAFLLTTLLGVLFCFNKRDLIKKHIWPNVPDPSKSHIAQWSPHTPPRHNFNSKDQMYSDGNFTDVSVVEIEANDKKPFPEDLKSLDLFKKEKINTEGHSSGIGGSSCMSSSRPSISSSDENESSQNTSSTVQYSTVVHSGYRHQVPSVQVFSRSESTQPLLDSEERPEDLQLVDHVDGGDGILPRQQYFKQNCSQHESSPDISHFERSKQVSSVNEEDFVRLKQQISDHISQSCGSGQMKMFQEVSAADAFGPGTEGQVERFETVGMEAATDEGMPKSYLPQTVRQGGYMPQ
Protocol Description: Binding affinity to immobilized GP130 (unknown origin) assessed as response unit at 20 uM by SPR analysis
We label by threshold. Values of Activity strictly beneath 30 RU are true (1). Values of 30 RU and up are false (0).

Would you please look over these solved cases?
COc1ccc(C2=NN(C(N)=O)C(c3cn(Cc4ccc(OCCN5CCCCC5)cc4)c4ccc(Br)cc34)C2)cc1 (stereo not drawn)    true (1)
NC(=O)N1N=C(c2ccc(C(F)(F)F)cc2)CC1c1cn(Cc2ccc(OCCN3CCOCC3)cc2)c2ccc(Br)cc12 (stereo not drawn)    true (1)
COc1ccccc1C1=NN(C(N)=O)C(c2cn(Cc3ccc(OCCN4CCCCC4)cc3)c3ccc(Br)cc23)C1 (stereo not drawn)    false (0)
COc1cc(C2=NN(C(N)=O)C(c3cn(Cc4ccc(OCCN5CCCCC5)cc4)c4ccccc34)C2)cc(OC)c1OC (stereo not drawn)    true (1)
NC(=O)N1N=C(c2ccc(C(F)(F)F)cc2)CC1c1cn(Cc2ccc(OCCN3CCCCCC3)cc2)c2ccc(Br)cc12 (stereo not drawn)    true (1)

With those in mind, consider the next compound.
Challenge: Answer whether the compound CCCCCCCOc1ccc(Cn2cc(C3CC(c4ccc(C(F)(F)F)cc4)=NN3C(N)=O)c3cc(Br)ccc32)cc1 (stereo not drawn) has Activity strictly less than 30 RU
Response given: true (1)

###

Reported IC50 values are given for each entry in this list.
Tested on: A549
Protocol Description: Antiproliferative activity against human A549 cells assessed as cell growth inhibition measured after 24 hrs by MTT assay
Type: functional, cell-based
Experimental Parameters: A549, 24 h
Form entry: value (µM) — number only.

Some compounds with recorded IC50:
NC(=O)N1N=C(c2ccc(C(F)(F)F)cc2)C[C@@H]1c1cn(Cc2ccc(OCCN3CCCCCC3)cc2)c2ccc(Br)cc12    6.16
COc1ccc(C2=NN(C(N)=O)C(c3cn(Cc4ccc(OCCN5CCCCC5)cc4)c4ccccc34)C2)cc1 (stereo not drawn)    12.7
NC(=O)N1N=C(c2ccc(C(F)(F)F)cc2)CC1c1cn(Cc2ccc(OCCN3CCCCC3)cc2)c2ccc(Br)cc12 (stereo not drawn)    4.69
NC(=O)N1N=C(c2ccc(F)cc2)CC1c1cn(Cc2ccc(OCCN3CCCCC3)cc2)c2ccccc12 (stereo not drawn)    7.44
COc1ccc(C2=NN(C(N)=O)C(c3cn(Cc4ccc(OCCN5CCCCC5)cc4)c4ccc(Br)cc34)C2)cc1 (stereo not drawn)    5.9

Challenge: Which IC50 reading was recorded for the compound NC(=O)N1N=C(c2ccc(F)cc2)CC1c1cn(Cc2ccc(OCCN3CCCCC3)cc2)c2ccc(Br)cc12 (stereo not drawn) ?
Response given: 6.8

Challenge: Param item: COc1cc(C2=NN(C(N)=O)C(c3cn(Cc4ccc(OCCN5CCCCC5)cc4)c4ccccc34)C2)cc(OC)c1OC (stereo not drawn)
Response given: 11.8

###

Target System: Interleukin-6 receptor subunit beta (Homo sapiens) (UniProt P40189)
Protocol Description: Binding affinity to immobilized GP130 (unknown origin) assessed as response unit at 20 uM by SPR analysis
Friendly reminder: Activity below 30 RU is fulfilled, at or above is not fulfilled.

COc1cccc(C2=NN(C(N)=O)C(c3cn(Cc4ccc(OCCN5CCCCC5)cc4)c4ccc(Br)cc34)C2)c1 (stereo unspecified)    fulfilled
NC(=O)N1N=C(c2ccc(Br)cc2)CC1c1cn(Cc2ccc(OCCN3CCCCC3)cc2)c2ccc(Br)cc12 (stereo unspecified)    not fulfilled
COc1ccc(C2=NN(C(N)=O)C(c3cn(Cc4ccc(OCCN5CCCCC5)cc4)c4ccccc34)C2)cc1 (stereo unspecified)    not fulfilled
NC(=O)N1N=C(c2ccc(C(F)(F)F)cc2)CC1c1cn(Cc2ccc(OCCC3CCNCC3)cc2)c2ccc(Br)cc12 (stereo unspecified)    not fulfilled
COc1ccc2c(c1)c(C1CC(c3cc(OC)c(OC)c(OC)c3)=NN1C(N)=O)cn2Cc1ccc(OCCN2CCCCC2)cc1 (stereo unspecified)    fulfilled

Let's switch to this compound now.
Challenge: For this compound, is Activity lower than 30 RU? COc1cc(C2=NN(C(N)=O)C(c3cn(Cc4ccc(OCCN5CCCCC5)cc4)c4ccc(Br)cc34)C2)cc(OC)c1OC (stereo unspecified)
Response given: not fulfilled

###

Protocol Description: Mean residence time in rat at 0.5 mg/kg, iv
Assay type: ADME, organism-based
Experimental Parameters: in vivo
Assay Endpoint: MRT (h)
Entry rule: numbers only, all in h.

Challenge: Entry NC(=O)N1N=C(c2ccc(C(F)(F)F)cc2)CC1c1cn(Cc2ccc(OCCN3CCCCCC3)cc2)c2ccc(Br)cc12 (stereo unspecified) has what MRT?
Response given: 13.7

###

Protocol Description: Bioavilability in rat at 5 mg/kg, ig
Type: ADME, organism-based
Experimental Parameters: in vivo, po
Assay Endpoint: bioavailability (%)
Numeric answer only, unit % assumed.

Challenge: Would you kindly share the measured bioavailability for NC(=O)N1N=C(c2ccc(C(F)(F)F)cc2)CC1c1cn(Cc2ccc(OCCN3CCCCCC3)cc2)c2ccc(Br)cc12 (stereo unspecified) ?
Response given: 5.6

###

Reported pIC50 values are given for each entry in this list.
Test system: A549
Protocol Description: Antiproliferative activity against human A549 cells assessed as cell growth inhibition measured after 24 hrs by MTT assay
Format: functional, cell-based
Experimental Parameters: A549, 24 h
pIC50 is a log-scale quantity: -log10 of the concentration expressed in molar.

CN(C)CCOc1ccc(Cn2cc(C3CC(c4ccc(C(F)(F)F)cc4)=NN3C(N)=O)c3cc(Br)ccc32)cc1 (stereo not given)    5.21
NC(=O)N1N=C(c2ccc(C(F)(F)F)cc2)C[C@H]1c1cn(Cc2ccc(OCCN3CCCCCC3)cc2)c2ccc(Br)cc12    5.52

Challenge: Any idea what its pIC50 is? The compound is NC(=O)N1N=C(c2ccc(C(F)(F)F)cc2)CC1c1cn(Cc2ccc(OCCN3CCCCC3)cc2)c2ccccc12 (stereo not given)
Response given: 5.25

Challenge: Now the compound NC(=O)N1N=C(c2ccc(C(F)(F)F)cc2)CC1c1cn(Cc2ccc(OCCC3CCNCC3)cc2)c2ccc(Br)cc12 (stereo not given)
Response given: 5.34

Challenge: COc1cc(C2=NN(C(N)=O)C(c3cn(Cc4ccc(OCCN5CCCCC5)cc4)c4ccc(Br)cc34)C2)cc(OC)c1OC (stereo not given) ?
Response given: 5.16

Challenge: Same lookup for COc1ccc(C2=NN(C(N)=O)C(c3cn(Cc4ccc(OCCN5CCCCC5)cc4)c4ccc(Br)cc34)C2)cc1OC (stereo not given) , please.
Response given: 5.13

Challenge: Entry NC(=O)N1N=C(c2ccc(Br)cc2)CC1c1cn(Cc2ccc(OCCN3CCCCC3)cc2)c2ccc(Br)cc12 (stereo not given) please
Response given: 5.17

Challenge: Another compound to check: COc1ccc2c(c1)c(C1CC(c3ccc(F)cc3)=NN1C(N)=O)cn2Cc1ccc(OCCN2CCCCC2)cc1 (stereo not given)
Response given: 5.02

Challenge: Cool, now NC(=O)N1N=C(c2ccc(C(F)(F)F)cc2)CC1c1cn(Cc2ccc(OCCN3CCCCCC3)cc2)c2ccc(Br)cc12 (stereo not given)
Response given: 5.35

Challenge: Next record, please: NC(=O)N1N=C(c2ccc(C(F)(F)F)cc2)CC1c1cn(Cc2ccc(OCCN3CCOCC3)cc2)c2ccc(Br)cc12 (stereo not given)
Response given: 5.03
